Test system: HepG2 cells
Experiment: HepG2 cytotoxicity assay
Conditions: read-out: HepG2 cytotoxicity assay IC50; dose response confirmation
ENDPOINT LABEL: IC50
Answer as a quantity: numeral, then unit.

* CS(=O)(=O)Cc1ccc(Nc2ncc(Cl)c(Nc3cccnc3C(N)=O)n2)cc1.Cl | 100 µM

Lab note: each molecule below needs its IC50 filled in.
1. CCn1c(CN2CCC(C)CC2)nc2cc(NC(=O)c3cccs3)ccc21
2. Cc1cc(O)c(-c2ccc(Oc3ccc(F)cc3)cc2)c(C)n1
3. CCCN1CCN(CCNc2c3ccccc3nc3ccccc23)CC1
4. COc1ccc2nc3cc(Cl)ccc3c(NCCCN3CCNCC3)c2c1.Cl
5. CN1CCN(CC(=O)Nc2ccc(-c3ccc(-c4nc5ccccc5[nH]4)cc3)cc2)CC1
6. Cl.Cl.c1ccc2c(NCCCCCCNc3c4ccccc4nc4ccccc34)c3ccccc3nc2c1
7. Cc1[nH]c(C)c(-c2ccc(C(=O)c3ccc(Cl)cc3)cc2)c(=O)c1Br
8. Cc1cc(=O)[nH]c(-n2nc(C)cc2NC(=O)C2(c3ccc(Cl)cc3)CCCC2)n1

75.9 µM
0.28 µM
7.41 µM
14.8 µM
21.6 µM
8.13 µM
44.7 µM
3.31 µM

Lab note: each molecule below needs its IC50 filled in.
1. Cc1[nH]c(C)c(-c2ccc(Oc3ccc(F)cc3)cc2)c(=O)c1Br
2. C=CC(C)C1OC(=O)c2cc(OC)cc(OC)c21 (stereo not drawn)
3. CN(C)c1ccc(C=CC(=O)NC(=O)c2ccccc2O)cc1
4. CCCCCCCc1c(C)[nH]c2ccc(F)cc2c1=O
5. O=c1nc(C=Cc2ccc(Br)cc2)oc2ccccc12

3.8 µM
1.22 µM
100 µM
100 µM
100 µM

Lab note: each molecule below needs its IC50 filled in.
1. COc1ccc2ncc(F)c(CCN3CC[C@H](NCc4cc(C#N)c5c(c4)OCCO5)[C@H](O)C3)c2c1
2. Cc1cc(C2NC(=O)c3ccccc3N2)c(C)n1-c1ccc2c(c1)OCO2 (stereo not drawn)
3. CCN1CCN(CCCNc2c3ccccc3nc3ccccc23)CC1.Cl

38 µM
3.47 µM
9.12 µM

====

Tested on: HepG2 cells
Experiment: HepG2 cytotoxicity assay
Settings: HepG2 cytotoxicity unified across the three screens
ENDPOINT LABEL: Unified cytotox (µM)
Give bare numbers, in µM.

- Cc1ccc(Nc2nc(-c3ccccn3)cs2)nc1 [TCMDC-125854]: 33.07
- Cl.N=C(NCCCCC1CCCCC1)c1cccc(C(=N)NCCCCC2CCCCC2)n1 [TCMDC-137452]: 1.71
- Cl.c1ccc2c(Nc3ccc(Cc4ccc(Nc5c6ccccc6nc6ccccc56)cc4)cc3)c3ccccc3nc2c1 [TCMDC-137354]: 4.17

Turning to the following molecule.
Considering N=C(NCC1CC1c1ccccc1)c1cccc(C(=N)NCC2CC2c2ccccc2)n1 (stereo not shown) [TCMDC-137456] , its Unified cytotox with HepG2 cells was recorded as 6.50

====

System: 3D7-strain P. falciparum asexual parasites
Experiment: P. falciparum asexual growth inhibition assay (Pf GIA)
Type: cell-based, Plasmodium falciparum
Settings: dose response confirmation; read-out: Pf asexual growth inhibition assays IC50
Give measured log10(IC50) for each item. Keep answers brief.
Please keep in mind that the values are log10 of IC50 expressed in nM.

Solved cases below.
* Cc1ccc(C2(CN3CCC(NC(=O)c4[nH]ncc4Cl)CC3)CCCCC2)cc1 [TCMDC-124838] | -0.35
* Cl.c1ccc2c(NCCCCCCCCCNc3c4ccccc4nc4ccccc34)c3ccccc3nc2c1 [TCMDC-124286] | 2.54
* COc1ccc2nccc([C@@H](O)CN3C4CCC3CC(NCc3ccc5c(n3)NC(=O)CS5)C4)c2n1.Cl (stereo partly shown) [TCMDC-134697] | 3.03

Lab note: each compound below needs its log10(IC50) filled in.
1. O=C(Nc1ccc(N2CCCN(Cc3cccc(F)c3)CC2)cc1)c1cccs1.O=C(O)C(F)(F)F [TCMDC-135012]
2. COc1coc(C(=O)NC2CCN(CC3(c4ccc(Cl)cc4)CCC3)CC2)c1OC [TCMDC-124835]

1: 2.81; 2: 2.03

Where do the numbers come from? From paper PMC6753678.
